For each record, write down the corresponding protein stability index.
B1: HNF4A (parent)
chain: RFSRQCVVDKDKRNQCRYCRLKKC

# Variants of: B1
# experiment.notes: protein stability index of a GFP-peptide fusion (GPS, HEK-293T) (PSI 1-6); higher = more stable;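 note: lentivirally expressed fusions sorted by FACS into six bins by GFP to DsRed ratio, PSI derived from sequencing read proportions per bin multiplied by bin number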
# applied.conditions: c terminus: a fixed tail appended
Answers are plain numbers.

mutation_notation=D9N assay_readout="protein stability index" recorded_result=2.67
mutation_notation=C16E assay_readout="protein stability index" recorded_result=4.05
mutation_notation=Q5K assay_readout="protein stability index" recorded_result=2.43
mutation_notation=D11F assay_readout="protein stability index" recorded_result=2.63
mutation_notation=C16S assay_readout="protein stability index" recorded_result=3.52

// for each variant in input: emit protein stability index
1. V7L
2. R1K
3. R1Q

1. 2.48
2. 2.4
3. 2.66
